PROTOCOL TEXT: CHI Log D procedure
Type: physicochemical
CONDITION PARAMETERS: pH 7.4
MEASURED PROPERTY: CHI Log D
API doc: respond with a numeric literal and nothing else, no unit.

Please give the measured CHI Log D for this compound: CC(=O)N[C@@H](Cc1ccccc1)C(=O)N[C@@H](CC(=O)O)C(=O)N[C@@H](C)C(=O)N[C@]1(C)CCCCCCC=CCOC(=O)N2CC[C@@](C(=O)N[C@@H](Cc3ccccn3)C(=O)N[C@@H](Cc3c[nH]c4ccccc34)C(=O)N[C@@H](CCC(N)=O)C(N)=O)(C2)NC(=O)[C@H](C(C)C)NC(=O)[C@H](Cc2ccccc2)NC(=O)[C@H](C)NC(=O)[C@H](C)NC(=O)[C@H](CC(=O)O)NC(=O)[C@H](CC(=O)O)NC1=O [I-81]
1.063

Item CC(=O)N1CCC[C@]12CC=CCCCC1(CCCC=CCCCCCC[C@@](C)(C(=O)N[C@@H](Cc3ccc4ccccc4c3)C(=O)N[C@@H](Cc3c[nH]c4ccccc34)C(=O)N[C@@H](CCC(N)=O)C(N)=O)NC(=O)[C@H](C(C)C)NC(=O)[C@H](Cc3ccccc3)NC(=O)[C@H](C)NC(=O)[C@H](C)NC(=O)[C@H](CC(=O)O)NC(=O)[C@H](CC(=O)O)NC1=O)NC(=O)[C@H](C)NC(=O)[C@H](CC(=O)O)NC2=O (some centres unmarked) [I-277] has what recorded CHI Log D?
2.186

---

MEASURED ON: beta-catenin/TCF4 engagement (Homo sapiens, UniProt P35222)
Construct: expressed in transfected cells; host or cells: HEK293
PROTOCOL TEXT: Nano-BRET target engagement assay (B-cat-Halo & TCF4-Luc in HEK293 cells)
Format: cell-based
CONDITION PARAMETERS: absolute IC50; read-out: NanoBRET Abs IC50
MEASURED PROPERTY: pIC50
Lab note — pIC50 values are minus log10 of concentrations in M.

Give the measured pIC50 of CC(=O)N1CCC[C@]12CC=CCCCC1(CCCC=CCCCOC(=O)N3CC[C@@](C(=O)N[C@@H](Cc4ccccc4Cl)C(=O)N[C@@H](Cc4csc5ccccc45)C(=O)N[C@@H](CO)C(N)=O)(C3)NC(=O)[C@H]([C@@H](C)O)NC(=O)[C@H](Cc3ccccc3)NC(=O)[C@H](C)NC(=O)[C@H](C)NC(=O)[C@H](CC(=O)O)NC(=O)[C@H](CC(=O)O)NC1=O)NC(=O)[C@H](CC1CCCCC1)NC(=O)[C@H](CC(=O)O)NC2=O (stereo partly drawn) .
5.06

Fill in: pIC50 of CC(=O)N1CCC[C@]12CC=CCCCC1(CCCC=CCCCOC(=O)N3CC[C@@](C(=O)N[C@@H](Cc4ccccc4C(F)(F)F)C(=O)N[C@@H](Cc4csc5ccccc45)C(=O)N[C@@H](C)C(N)=O)(C3)NC(=O)[C@H](CC(C)C)NC(=O)[C@H](Cc3ccccc3)NC(=O)[C@H](C)NC(=O)[C@H](CCC(=O)N3CCNC(=O)C3)NC(=O)[C@H](Cc3cccc(C(=O)O)c3)NC(=O)[C@H](CC(=O)O)NC1=O)NC(=O)[C@H](CC(C)(C)C)NC(=O)[C@H](CC(=O)O)NC2=O (stereo partly drawn) is ___
5.74

I am curious: what pIC50 value has been reported for CC(=O)N1CCC[C@]12CC=CCCCC1(CCCC=CCCCOC(=O)N3CC[C@@](C(=O)N[C@@H](Cc4ccccc4Cl)C(=O)N[C@@H](Cc4csc5ccccc45)C(=O)N[C@@H](CCC(N)=O)C(=O)N4CCC[C@H]4CO)(C3)NC(=O)[C@H](CC(C)C)NC(=O)[C@H](Cc3ccccc3)NC(=O)[C@H](C)NC(=O)[C@H](C)NC(=O)[C@H](Cc3cccc(C(=O)O)c3)NC(=O)[C@H](CC(=O)O)NC1=O)NC(=O)[C@H](CC(C)(C)C)NC(=O)[C@H](CC(=O)O)NC2=O (stereo partly drawn) ?
5.01

Could you tell me which pIC50 is on file for CCNC(=O)CC[C@H](NC(=O)[C@H](Cc1csc2ccccc12)NC(=O)[C@H](Cc1ccccc1C(F)(F)F)NC(=O)[C@]12CCN(C1)C(=O)OCCCC=CCCCC1(CCCC=CC[C@]3(CCCN3C(C)=O)C(=O)N[C@@H](CC(=O)O)C(=O)N[C@@H](CC(C)(C)C)C(=O)N1)C(=O)N[C@@H](CC(=O)O)C(=O)N[C@@H](Cc1cccc(C(=O)O)c1)C(=O)N[C@@H](C)C(=O)N[C@@H](C)C(=O)N[C@@H](Cc1ccccc1)C(=O)N[C@@H](CC)C(=O)N2)C(=O)N[C@@H](C)C(N)=O (stereo partly drawn) ?
5.74

Need pIC50, item CC(=O)N1CCC[C@]12CC=CCCCC1(CCCC=CCCCOC(=O)N3CC[C@@](C(=O)N[C@@H](Cc4ccsc4)C(=O)N[C@@H](Cc4csc5ccccc45)C(=O)N[C@@H](CO)C(N)=O)(C3)NC(=O)[C@H](CC(C)C)NC(=O)[C@H](Cc3ccccc3)NC(=O)[C@H](C)NC(=O)[C@H](C)NC(=O)[C@H]([C@@H](C)O)NC(=O)[C@H](CC(=O)O)NC1=O)NC(=O)[C@H](CC(C)(C)C)NC(=O)[C@H](CC(=O)O)NC2=O (stereo partly drawn)
4.54

What value of pIC50 has been reported for the following compound? CCCC[C@@H]1NC(=O)[C@H](CC(=O)O)NC(=O)[C@]2(CC=CCCCC3(CCCC=CCCCCCC[C@@](C)(C(=O)N[C@@H](Cc4ccccc4)C(=O)N[C@@H](Cc4csc5ccccc45)C(=O)N[C@@H](CCC(N)=O)C(N)=O)NC(=O)[C@H](CCO)NC(=O)[C@H](Cc4ccccc4)NC(=O)[C@H](C)NC(=O)[C@H](C)NC(=O)[C@H](CCC(=O)O)NC(=O)[C@H](CC(=O)O)NC3=O)NC1=O)CCCN2C(C)=O (stereo partly drawn) [I-1525]
4.97

# query: pIC50 of entry CC(=O)N1CCC[C@]12CC=CCCCC1(CCCC=CCCCOC(=O)N3CC[C@@](C(=O)N[C@@H](Cc4ccsc4)C(=O)N[C@@H](Cc4csc5ccccc45)C(=O)N[C@@H](CCC(N)=O)C(N)=O)(C3)NC(=O)[C@H](CC(C)C)NC(=O)[C@H](Cc3ccccc3)NC(=O)[C@H](C)NC(=O)[C@H](C)NC(=O)[C@H](CN(CC(=O)O)C(=O)Cc3c(F)c(F)c(F)c(F)c3F)NC(=O)[C@H](CC(=O)O)NC1=O)NC(=O)[C@H](CC(C)(C)C)NC(=O)[C@H](CC(=O)O)NC2=O (stereo partly drawn)
4.75

Fill blank: measured pIC50 of the compound CC(=O)N1CCC[C@]12CC=CCCCC1(CCCC=CCCCOC(=O)N3CC[C@@](C(=O)N[C@@H](Cc4ccsc4)C(=O)N[C@@H](Cc4csc5ccccc45)C(=O)N[C@@H](CCC(N)=O)C(N)=O)(C3)NC(=O)[C@H](CC(C)C)NC(=O)[C@H](Cc3ccccc3)NC(=O)[C@H](C)NC(=O)[C@H](C)NC(=O)[C@H](CN(CC(=O)O)Cc3c(F)c(F)c(F)c(F)c3F)NC(=O)[C@H](CC(=O)O)NC1=O)NC(=O)[C@H](CC(C)(C)C)NC(=O)[C@H](CC(=O)O)NC2=O (stereo partly drawn) is ____.
5.19

---

MEASURED ON: full-length beta-Catenin (Uniprot ID P35222) (Homo sapiens, UniProt P35222)
Construct: 10 nM full-length beta-Catenin (Uniprot ID P35222)
Sequence (P35222 1-781): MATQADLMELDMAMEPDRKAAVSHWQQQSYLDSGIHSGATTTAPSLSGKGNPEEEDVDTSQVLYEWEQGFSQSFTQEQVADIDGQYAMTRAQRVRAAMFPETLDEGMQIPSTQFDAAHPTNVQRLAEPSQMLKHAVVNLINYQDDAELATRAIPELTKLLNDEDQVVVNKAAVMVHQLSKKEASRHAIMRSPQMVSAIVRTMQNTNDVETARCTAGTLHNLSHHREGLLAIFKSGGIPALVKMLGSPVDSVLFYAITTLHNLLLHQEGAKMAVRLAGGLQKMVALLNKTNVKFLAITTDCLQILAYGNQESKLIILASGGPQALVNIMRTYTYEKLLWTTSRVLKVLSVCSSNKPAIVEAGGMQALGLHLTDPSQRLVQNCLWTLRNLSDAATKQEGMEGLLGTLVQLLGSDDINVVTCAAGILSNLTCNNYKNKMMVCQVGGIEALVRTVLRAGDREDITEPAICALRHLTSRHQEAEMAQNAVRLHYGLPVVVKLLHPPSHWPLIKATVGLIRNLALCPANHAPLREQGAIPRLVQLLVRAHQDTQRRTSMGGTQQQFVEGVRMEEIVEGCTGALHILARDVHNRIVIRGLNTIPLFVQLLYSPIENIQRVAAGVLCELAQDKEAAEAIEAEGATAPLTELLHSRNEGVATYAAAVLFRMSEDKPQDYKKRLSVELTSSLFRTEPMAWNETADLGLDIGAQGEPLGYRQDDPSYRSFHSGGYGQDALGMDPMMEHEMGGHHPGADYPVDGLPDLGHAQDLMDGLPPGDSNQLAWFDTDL
PROTOCOL TEXT: Fluorescence polarization IC50 (beta-catenin / 5FAM-TCF4 10-53 competition)
Type: binding
CONDITION PARAMETERS: fluorescence polarization; read-out: beta-Catenin FP IC50
Please provide measured IC50 for the entries that follow.

Can you look up the measured IC50 of CC[C@H](C)[C@@H]1NC(=O)[C@H](CC(=O)O)NC(=O)[C@]2(CC=CCCCC3(CCCC=CCCCCCC[C@@](C)(C(=O)N[C@@H](Cc4ccccc4)C(=O)N[C@@H](Cc4csc5ccccc45)C(=O)N[C@@H](Cc4c[nH]c5ccccc45)C(N)=O)NC(=O)[C@H](CCC(N)=O)NC(=O)[C@H](Cc4ccccc4)NC(=O)[C@H](C)NC(=O)[C@H](C)NC(=O)[C@H](CCC(=O)O)NC(=O)[C@H](CC(=O)O)NC3=O)NC1=O)CCCN2C(C)=O (stereo partly drawn) [I-643] for me?
958 nM

So what's the measured IC50 for this one? CC(=O)N1CCC[C@]12CC=CCCCC1(CCCC=CCCCOC(=O)N3CC[C@@](C(=O)N[C@@H](Cc4ccsc4)C(=O)N[C@@H](Cc4csc5ccccc45)C(=O)N[C@@H](CCC(N)=O)C(N)=O)(C3)NC(=O)[C@H](CC(N)=O)NC(=O)[C@H](Cc3ccccc3)NC(=O)[C@H](C)NC(=O)[C@H](C)NC(=O)[C@H]([C@@H](C)O)NC(=O)[C@H](CC(N)=O)NC1=O)NC(=O)[C@H](CC(C)(C)C)NC(=O)[C@H](CCCC(=O)O)NC2=O (stereo partly drawn)
8750 nM

Would you kindly share the measured IC50 for CC(=O)N1CCC[C@]12CC=CCCCC1(CCCC=CCCCOC(=O)N3CC[C@@](C(=O)N[C@@H](Cc4ccccc4Cl)C(=O)N[C@@H](Cc4csc5ccccc45)C(=O)N[C@@H](CO)C(N)=O)(C3)NC(=O)[C@H](Cc3ccccc3)NC(=O)[C@H](Cc3ccccc3)NC(=O)[C@H](C)NC(=O)[C@H](C)NC(=O)[C@H](Cc3ccccc3C(=O)O)NC(=O)[C@H](CC(=O)O)NC1=O)NC(=O)[C@H](CC(C)(C)C)NC(=O)[C@H](CC(=O)O)NC2=O (stereo partly drawn) ?
69 nM
